Biological target: human CB2 receptor (CNR2) (Homo sapiens (Human), UniProt P34972)
Sequence (P34972 whole entry): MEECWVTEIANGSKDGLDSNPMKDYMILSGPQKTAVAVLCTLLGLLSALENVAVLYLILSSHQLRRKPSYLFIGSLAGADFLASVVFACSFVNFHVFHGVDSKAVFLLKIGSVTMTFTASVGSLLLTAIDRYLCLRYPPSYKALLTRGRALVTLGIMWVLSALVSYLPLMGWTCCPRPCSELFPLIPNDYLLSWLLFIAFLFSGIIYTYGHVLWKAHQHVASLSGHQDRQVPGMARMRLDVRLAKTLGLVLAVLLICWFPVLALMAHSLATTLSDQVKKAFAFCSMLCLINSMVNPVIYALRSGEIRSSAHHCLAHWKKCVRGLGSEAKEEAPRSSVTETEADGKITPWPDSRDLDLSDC
pKi: −log10 of the molar value.
Kindly return True if reported pKi is no lower than 7; return False if it is lower.

Evaluate CC(C)(C)c1nc(N2CCC(F)(F)C2)c2nnn(Cc3ccccc3CS(=O)(=O)F)c2n1 [Example 2] : pKi at minimum 7?
True

Determine whether measured pKi meets or exceeds 7 for CC(C)(C)c1nc(N2CC[C@H](O)C2)c2nnn(Cc3ccccc3CS(=O)(=O)F)c2n1 [Example 3]
False

Quick check, pKi >= 7? C#Cc1cccc(S(=O)(=O)F)c1Cn1nnc2c(N3CCC(F)(F)C3)nc(C(C)(C)C)nc21 [Example 38]
True
